Ref: patent EP4772503A1

- experiment notes: DLS detection of grain size, PDI and zeta potential of vesicles
- Type: physicochemical
- experimental setup: vesicles of the derivative, depolymerization and assembly repeated three times
Each entry gets Not fulfilled if its PDI stays under 0.1, and Fulfilled if its PDI is 0.1 or above.

Exam item: decide whether the reported PDI for O=C(CCCCC1CCSS1)NCCOCCC(=O)NC(Cc1cccc(B(O)O)c1)C(=O)O (stereo not shown) is at least 0.1. Fulfilled

PDI >= 0.1 for O=C(CCCCC1CCSS1)NCCOCCOCCC(=O)NC(Cc1ccc(B(O)O)cc1)C(=O)O (stereo not shown) ? Not fulfilled

Dear colleague, could you confirm whether O=C(CCCCC1CCSS1)NCCOCCOCCOCCOCCOCCOCCOCCOCCC(=O)NC(Cc1ccc(B(O)O)cc1)C(=O)O (stereo not shown) has PDI at or above 0.1? Fulfilled

# bool: PDI of O=C(CCCCC1CCSS1)NCCOCCOCCOCCOCCOCCOCCOCCOCCC(=O)NC(Cc1cccc(B(O)O)c1)C(=O)O (stereo not shown) >= 0.1 Fulfilled

Would you say O=C(CCCCC1CCSS1)NCCOCCC(=O)NC(Cc1ccc(B(O)O)cc1)C(=O)O (stereo not shown) shows PDI at minimum 0.1? Fulfilled

Determine whether measured PDI meets or exceeds 0.1 for O=C(CCCCC1CCSS1)NCCOCCOCCOCCOCCC(=O)NC(Cc1cccc(B(O)O)c1)C(=O)O (stereo not shown) Fulfilled
